- target under test: SMARCA2 (Homo sapiens, UniProt P51531)
- Construct: endogenous in cells
- Sequence (P51531 whole entry, species assumed): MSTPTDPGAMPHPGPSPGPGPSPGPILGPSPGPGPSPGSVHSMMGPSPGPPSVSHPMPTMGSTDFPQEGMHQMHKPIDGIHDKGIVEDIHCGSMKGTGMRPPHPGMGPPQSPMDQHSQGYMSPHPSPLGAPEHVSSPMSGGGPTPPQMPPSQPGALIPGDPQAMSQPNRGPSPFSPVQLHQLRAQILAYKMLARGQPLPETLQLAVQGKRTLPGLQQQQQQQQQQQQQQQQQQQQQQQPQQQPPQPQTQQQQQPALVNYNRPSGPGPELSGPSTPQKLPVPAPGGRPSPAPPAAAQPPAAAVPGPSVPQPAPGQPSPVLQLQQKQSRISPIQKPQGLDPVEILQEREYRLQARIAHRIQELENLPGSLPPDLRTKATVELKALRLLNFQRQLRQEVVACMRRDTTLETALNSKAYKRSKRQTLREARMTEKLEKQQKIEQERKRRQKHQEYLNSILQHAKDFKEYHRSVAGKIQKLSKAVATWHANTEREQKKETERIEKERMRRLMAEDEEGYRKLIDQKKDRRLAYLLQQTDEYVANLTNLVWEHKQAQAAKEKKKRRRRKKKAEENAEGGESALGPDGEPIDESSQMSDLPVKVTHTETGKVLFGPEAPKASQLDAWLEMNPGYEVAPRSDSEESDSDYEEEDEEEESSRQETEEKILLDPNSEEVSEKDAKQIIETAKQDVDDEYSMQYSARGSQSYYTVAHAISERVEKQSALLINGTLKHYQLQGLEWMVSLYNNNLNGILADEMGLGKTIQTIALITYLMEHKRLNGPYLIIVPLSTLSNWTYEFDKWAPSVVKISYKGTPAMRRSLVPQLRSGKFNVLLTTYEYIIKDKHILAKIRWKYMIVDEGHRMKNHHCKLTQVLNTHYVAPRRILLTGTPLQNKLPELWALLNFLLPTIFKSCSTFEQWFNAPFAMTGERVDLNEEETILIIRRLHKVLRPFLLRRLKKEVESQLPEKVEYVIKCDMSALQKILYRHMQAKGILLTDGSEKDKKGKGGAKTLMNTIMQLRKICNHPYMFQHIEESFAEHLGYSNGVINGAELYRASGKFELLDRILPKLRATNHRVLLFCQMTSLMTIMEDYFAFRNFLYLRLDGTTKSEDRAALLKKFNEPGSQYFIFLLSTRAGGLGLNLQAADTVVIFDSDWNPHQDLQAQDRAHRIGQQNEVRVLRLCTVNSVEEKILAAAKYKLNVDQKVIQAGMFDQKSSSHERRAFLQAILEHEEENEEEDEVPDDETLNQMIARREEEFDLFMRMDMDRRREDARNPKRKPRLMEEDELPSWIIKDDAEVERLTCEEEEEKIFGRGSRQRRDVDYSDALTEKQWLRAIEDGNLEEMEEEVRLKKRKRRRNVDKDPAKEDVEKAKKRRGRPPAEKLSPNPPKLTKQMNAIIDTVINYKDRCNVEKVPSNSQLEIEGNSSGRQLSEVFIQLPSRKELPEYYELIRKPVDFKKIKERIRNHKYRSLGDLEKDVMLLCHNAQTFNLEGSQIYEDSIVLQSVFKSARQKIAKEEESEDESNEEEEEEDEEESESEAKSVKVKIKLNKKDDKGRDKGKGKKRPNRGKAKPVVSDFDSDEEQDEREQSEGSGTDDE
- assay name: SMARCA2 Cellular Degradation Assay (Western blot analysis on Jess platform)
- Assay type: cell-based
- measurement setup: cellular degradation
observation type: Dmax (%)

1. O=C1CCC(c2ccc(N3CCC(CN4CC5(C4)CN(C(=O)C4(c6ccc(Cl)c(Cl)c6)CCN(c6cnnc(-c7ccccc7O)c6)CC4)C5)CC3)cc2)C(=O)N1 (racemic)    63

[I] O=C1CC[C@@H](c2ccc(N3CCN(CC4=NO[C@@H]5CN(C(=O)C6(c7ccccc7)CCN(c7cnnc(-c8ccccc8O)c7)CC6)C[C@H]45)CC3)cc2)C(=O)N1 (racemic)
[II] CN(C(=O)C1(c2ccccc2)CCN(c2cnnc(-c3ccccc3O)c2)CC1)C1CCN(CCC2CCN(c3cccc4c3n(C)c(=O)n4C3CCC(=O)NC3=O)CC2)CC1 (racemic)
Ask | Could you kindly indicate whether I or II has the higher Dmax value? Answer = label.
Reply | II

[P] CN(C(=O)C1(c2ccncc2)CCN(c2cnnc(-c3ccccc3O)c2)CC1)C1CCN(CCC2CCN(c3ccc([C@H]4CCC(=O)NC4=O)cc3)CC2)CC1
[Q] CC1(C(=O)N2CCN(c3ccc(C4CCC(=O)NC4=O)cc3)CC2)CCN(C(=O)C2(c3ccccc3)CCN(c3cnnc(-c4ccccc4O)c3)CC2)CC1 (racemic)
Ask | Higher Dmax between P and Q ? Mark your answer with the label of the selected entry.
Reply | P
